These data points were gathered from patent US12059422B2.

Molecular target: PI3K beta (Homo sapiens, UniProt P42338)
Construct: purchased Millipore, Billerica, MA, USA
Sequence (P42338 whole entry, species assumed, one chain of several): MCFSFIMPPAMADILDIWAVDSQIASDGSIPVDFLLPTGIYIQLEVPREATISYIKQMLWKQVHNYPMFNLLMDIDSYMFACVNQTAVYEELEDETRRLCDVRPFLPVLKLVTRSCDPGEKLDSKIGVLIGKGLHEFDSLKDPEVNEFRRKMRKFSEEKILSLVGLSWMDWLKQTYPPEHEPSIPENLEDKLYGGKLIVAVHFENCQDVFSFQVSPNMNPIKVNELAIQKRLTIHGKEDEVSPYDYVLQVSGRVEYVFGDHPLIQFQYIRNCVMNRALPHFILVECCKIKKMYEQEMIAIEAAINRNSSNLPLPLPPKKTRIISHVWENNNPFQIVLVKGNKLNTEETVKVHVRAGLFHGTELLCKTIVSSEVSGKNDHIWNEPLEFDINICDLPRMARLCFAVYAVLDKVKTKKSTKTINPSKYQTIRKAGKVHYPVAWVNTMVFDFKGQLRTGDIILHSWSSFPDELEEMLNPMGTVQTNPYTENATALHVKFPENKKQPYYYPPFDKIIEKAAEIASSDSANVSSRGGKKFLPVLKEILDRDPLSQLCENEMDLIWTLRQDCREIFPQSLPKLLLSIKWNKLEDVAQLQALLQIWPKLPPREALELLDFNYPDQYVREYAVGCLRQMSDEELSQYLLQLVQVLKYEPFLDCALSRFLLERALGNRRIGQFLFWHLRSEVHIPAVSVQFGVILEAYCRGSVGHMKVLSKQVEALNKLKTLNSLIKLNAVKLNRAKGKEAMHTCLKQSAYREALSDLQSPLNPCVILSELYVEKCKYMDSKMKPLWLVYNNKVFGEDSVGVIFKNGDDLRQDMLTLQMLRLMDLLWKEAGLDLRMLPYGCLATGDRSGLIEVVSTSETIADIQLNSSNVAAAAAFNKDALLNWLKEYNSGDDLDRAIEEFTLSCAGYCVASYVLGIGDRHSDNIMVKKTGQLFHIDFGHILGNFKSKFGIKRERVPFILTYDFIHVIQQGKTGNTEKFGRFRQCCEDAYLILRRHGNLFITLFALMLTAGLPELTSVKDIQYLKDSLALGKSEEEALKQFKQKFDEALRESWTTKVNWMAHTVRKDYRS
Assay: Luciferase-based luminescence assay (ADP Glo), PI3K beta enzymatic activity
Format: biochemical
Details: ratio of enzymatic IC50 values, Table 1

- Smiles Str: "Cc1cccc(CC(C)(C)Nc2nc(N3CCOCC3)nc(-n3c(C(F)F)nc4ccccc43)n2)c1"
  α/β ratio: "A’"
- Smiles Str: "CC(C)(Cc1ccc(F)cc1F)Nc1nc(N2CCOCC2)nc(-n2c(C(F)F)nc3ccccc32)n1"
  α/β ratio: "D’"
- Smiles Str: "CC(C)(Cc1cccc2ccccc12)Nc1nc(N2CCOCC2)nc(-n2c(C(F)F)nc3ccccc32)n1"
  α/β ratio: "B’"
- Smiles Str: "COc1cccc(-c2ccccc2CC(C)(C)Nc2nc(N3CCOCC3)nc(-n3c(C(F)F)nc4ccccc43)n2)c1"
  α/β ratio: "D’"

====

Target: PI3K delta (Homo sapiens, UniProt O00329)
Construct: purchased Millipore, Billerica, MA, USA
Assay: Luciferase-based luminescence assay (KinaseGlo), PI3K delta enzymatic activity
Assay type: biochemical
Conditions: ratio of enzymatic IC50 against PI3Kα over IC50 against PI3Kδ
Measured Parameter: α/δ ratio

Below, 5 compounds whose answers are already recorded.
- Compound: "COc1ccc(-c2ccccc2CC(C)(C)Nc2nc(N3CCOCC3)nc(-n3c(C(F)F)nc4ccccc43)n2)cc1"
  Measured Parameter: "α/δ ratio"
  Result: "A’"
- Compound: "CC(C)(Cc1cccc(F)c1)Nc1nc(N2CCOCC2)nc(-n2c(C(F)F)nc3ccccc32)n1"
  Measured Parameter: "α/δ ratio"
  Result: "A’"
- Compound: "CC(C)(Cc1ccccc1-c1ccccc1Cl)Nc1nc(N2CCOCC2)nc(-n2c(C(F)F)nc3ccccc32)n1"
  Measured Parameter: "α/δ ratio"
  Result: "A’"
- Compound: "CC(Nc1nc(N2CCOCC2)nc(-n2c(C(F)F)nc3ccccc32)n1)c1ccccc1 (stereo not drawn)"
  Measured Parameter: "α/δ ratio"
  Result: "C’"
- Compound: "C[C@@H](Nc1nc(N2CCOCC2)nc(-n2c(C(F)F)nc3ccccc32)n1)c1ccccc1"
  Measured Parameter: "α/δ ratio"
  Result: "D’"

Checklist item: α/δ ratio tested on PI3K delta (Homo sapiens, UniProt O00329), entry CC(C)(Cc1ccccc1-c1ccccc1)Nc1nc(N2CCOCC2)nc(-n2c(C(F)F)nc3ccccc32)n1 , value?
A’

# iterate: CC(C)(CNc1nc(N2CCOCC2)nc(-n2c(C(F)F)nc3ccccc32)n1)c1ccccc1
C’

# iterate: CC(C)(Cc1ccc(Br)cc1)Nc1nc(N2CCOCC2)nc(-n2c(C(F)F)nc3ccccc32)n1
D’

# iterate: CC(C)(Cc1cccc2ccccc12)Nc1nc(N2CCOCC2)nc(-n2c(C(F)F)nc3ccccc32)n1
A’

# iterate: COC(=O)[C@H](Nc1nc(N2CCOCC2)nc(-n2c(C(F)F)nc3ccccc32)n1)c1ccccc1
D’

# iterate: CC(C)(Cc1ccccc1-c1cccc(CN2CCOCC2)c1)Nc1nc(N2CCOCC2)nc(-n2c(C(F)F)nc3ccccc32)n1
A’

====

Target: PI3Kδ (Homo sapiens, UniProt O00329)
Construct: endogenous in cells; host or cells: Raji (ATCC #CCL-86)
Sequence (O00329 whole entry): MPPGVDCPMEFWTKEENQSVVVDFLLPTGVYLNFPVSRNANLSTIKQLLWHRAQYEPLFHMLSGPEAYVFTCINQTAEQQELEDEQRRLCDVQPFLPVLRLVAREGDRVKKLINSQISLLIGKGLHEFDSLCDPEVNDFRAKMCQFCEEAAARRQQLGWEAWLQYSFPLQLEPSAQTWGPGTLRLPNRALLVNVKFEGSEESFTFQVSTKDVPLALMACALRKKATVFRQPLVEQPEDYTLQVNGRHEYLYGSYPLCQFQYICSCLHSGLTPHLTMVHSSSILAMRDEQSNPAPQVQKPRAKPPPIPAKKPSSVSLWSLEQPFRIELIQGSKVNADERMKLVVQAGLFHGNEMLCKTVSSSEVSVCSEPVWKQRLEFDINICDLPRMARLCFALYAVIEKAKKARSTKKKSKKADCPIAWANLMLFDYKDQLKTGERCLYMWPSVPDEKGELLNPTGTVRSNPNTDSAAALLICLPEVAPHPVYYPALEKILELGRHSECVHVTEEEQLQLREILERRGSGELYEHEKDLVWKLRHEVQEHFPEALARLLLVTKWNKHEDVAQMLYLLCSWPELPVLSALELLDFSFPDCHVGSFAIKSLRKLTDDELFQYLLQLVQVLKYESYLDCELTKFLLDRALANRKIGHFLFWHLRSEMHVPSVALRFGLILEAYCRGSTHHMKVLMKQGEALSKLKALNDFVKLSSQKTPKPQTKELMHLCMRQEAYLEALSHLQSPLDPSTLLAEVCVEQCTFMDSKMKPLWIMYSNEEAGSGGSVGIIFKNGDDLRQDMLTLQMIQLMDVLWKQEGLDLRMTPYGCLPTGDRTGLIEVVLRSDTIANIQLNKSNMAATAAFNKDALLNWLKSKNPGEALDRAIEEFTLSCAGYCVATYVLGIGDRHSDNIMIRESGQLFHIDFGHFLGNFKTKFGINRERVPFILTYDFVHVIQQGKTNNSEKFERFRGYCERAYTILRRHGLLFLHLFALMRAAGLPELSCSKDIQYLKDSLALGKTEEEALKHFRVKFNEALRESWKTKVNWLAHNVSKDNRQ
Sequence (P27986 whole entry partner): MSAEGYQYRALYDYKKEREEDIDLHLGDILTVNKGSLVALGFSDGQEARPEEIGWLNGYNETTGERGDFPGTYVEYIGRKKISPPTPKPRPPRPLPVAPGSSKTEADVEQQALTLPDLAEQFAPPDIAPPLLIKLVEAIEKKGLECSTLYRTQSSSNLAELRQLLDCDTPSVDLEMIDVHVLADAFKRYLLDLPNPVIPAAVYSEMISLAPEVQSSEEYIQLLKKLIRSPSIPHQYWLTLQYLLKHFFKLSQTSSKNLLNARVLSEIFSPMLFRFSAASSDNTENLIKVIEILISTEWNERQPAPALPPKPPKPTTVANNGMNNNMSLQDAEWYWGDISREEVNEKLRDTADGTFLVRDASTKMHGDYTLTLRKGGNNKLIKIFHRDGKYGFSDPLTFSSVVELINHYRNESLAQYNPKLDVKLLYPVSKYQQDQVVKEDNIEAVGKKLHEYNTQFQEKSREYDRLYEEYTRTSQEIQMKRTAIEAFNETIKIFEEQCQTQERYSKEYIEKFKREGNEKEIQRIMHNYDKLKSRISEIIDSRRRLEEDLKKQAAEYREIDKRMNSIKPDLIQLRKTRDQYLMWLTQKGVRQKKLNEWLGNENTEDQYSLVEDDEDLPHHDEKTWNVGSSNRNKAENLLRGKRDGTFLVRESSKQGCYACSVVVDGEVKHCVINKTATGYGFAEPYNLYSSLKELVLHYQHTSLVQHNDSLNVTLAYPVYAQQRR
Assay: ELISA assay for PI3Kδ: sandwich ELISA, phosphorylation of AKT (Thr308) in Raji cells
Assay type: cell-based
Settings: ratio of cellular IC50 values, Table 2
Measured Parameter: β/δ ratio

Below, 4 compounds whose answers are already recorded.
- Compound: "CCN1CCC(c2ccccc2CC(C)(C)Nc2nc(N3CCOCC3)nc(-n3c(C(F)F)nc4ccccc43)n2)CC1"
  β/δ ratio: "A’"
- Compound: "CC(C)(Cc1ccccc1-c1cccc(CN2CCOCC2)c1)Nc1nc(N2CCOCC2)nc(-n2c(C(F)F)nc3ccccc32)n1"
  β/δ ratio: "B’"
- Compound: "CC(C)(Cc1ccccc1-c1ccncc1)Nc1nc(N2CCOCC2)nc(-n2c(C(F)F)nc3ccccc32)n1"
  β/δ ratio: "A’"
- Compound: "CN1CCC(c2ccccc2CC(C)(C)Nc2nc(N3CCOCC3)nc(-n3c(C(F)F)nc4ccccc43)n2)C1 (centres unmarked)"
  β/δ ratio: "B’"

For the compound Cn1cc(-c2ccccc2CC(C)(C)Nc2nc(N3CCOCC3)nc(-n3c(C(F)F)nc4ccccc43)n2)cn1 , what β/δ ratio is on record?
B’

# iterate: CC(C)(Cc1ccccc1F)Nc1nc(N2CCOCC2)nc(-n2c(C(F)F)nc3ccccc32)n1
C’

# iterate: COc1cc(CC(C)(C)Nc2nc(N3CCOCC3)nc(-n3c(C(F)F)nc4ccccc43)n2)ccc1F
A’

# iterate: Cc1cc(-c2ccccc2CC(C)(C)Nc2nc(N3CCOCC3)nc(-n3c(C(F)F)nc4ccccc43)n2)ccn1
A’
